assay: GC/MS of serum sample: time from centrifugation to isolation (Table H); type: physicochemical, human; set-up: key: detection intensity relative to 1 at 30 min centrifugation-to-isolation; conditions: detection intensity relative to 1 at 30 minutes, after 1 hour
Property: Rate of increase or decrease

Qu. Reported Rate of increase or decrease for OC[C@H]1O[C@H](O[C@H]2O[C@H](CO)[C@@H](O)[C@H](O)[C@H]2O)[C@H](O)[C@@H](O)[C@@H]1O : what is it?
Ans. 1.45

Qu. Reported Rate of increase or decrease for O=C(CO)[C@H](O)[C@H](O)[C@H](O)CO : what is it?
Ans. 0.57

Qu. Reported Rate of increase or decrease for Oc1ccccn1 [2-Hydroxypyridine] : what is it?
Ans. 1.44

Qu. Reported Rate of increase or decrease for OC[C@@H](O)[C@@H](O[C@@H]1O[C@H](CO)[C@H](O)[C@H](O)[C@H]1O)[C@H](O)[C@@H](O)CO : what is it?
Ans. 1.60
